Data credit: ChEMBL document CHEMBL1201862

Test system: NCI-H460
Experiment: NCI tumour cell line growth inhibition, 48 h
Calls of active or inactive are those of the source. Cut-off read from the data, not from the text of the source: active = GI50 up to about 1.1 µM and inactive = higher.
Returns: one label drawn from active, inactive

Query :: Hey, what did the test say about CN1N=C(c2ccncc2)OC1c1cccc(F)c1 (stereo not drawn) ?
Result :: inactive

Query :: Hey, what did the test say about C[N+](C)(C)CC1CCc2ccccc2C1=O (stereo not drawn) ?
Result :: inactive

Query :: Hey, what did the test say about C=C(CCCCCCCCC)CC(=O)SCCNC(=O)CCNC(=O)C(O)C(C)(C)COP(=O)(O)OP(=O)(O)OCC1OC(n2cnc3c(N)ncnc32)C(O)C1OP(=O)(O)O (stereo not drawn) ?
Result :: inactive

Query :: Hey, what did the test say about `O=C1c2ccccc2C(=O)N1CCn1nc(-c2ccccc2)cc(-c2ccccc2)c1=O` ?
Result :: inactive

Query :: Hey, what did the test say about `Nc1nc(-c2ccccc2)cc(-c2ccc(F)cc2)c1-c1ccc(Cl)cc1` ?
Result :: inactive

Query :: Hey, what did the test say about `O=C1C=C(Nc2ccccc2C(=O)CC(=O)C(=O)Nc2ccc(Cl)c(Cl)c2)c2ccccc2C1=O` ?
Result :: inactive

Query :: Hey, what did the test say about `Cn1c(=O)cc(NNc2ccc(Cl)c(Cl)c2)[nH]c1=O` ?
Result :: inactive

Query :: Hey, what did the test say about `Cc1ccc(NC(=O)CC/C(CC(=O)C(C)(C)C)=N/NC(=O)c2cc3ccccc3cc2O)cc1C` ?
Result :: inactive

Query :: Hey, what did the test say about CS(=O)(=O)c1ccc(C(=O)O[C@@H]2C(=O)N3CC[C@H]4OC(O)[C@@H]2[C@H]43)cc1 (stereo partly drawn) ?
Result :: inactive

Query :: Hey, what did the test say about CNC(=O)OCC1C2=C(C(=O)C(C)=C(N)C2=O)N2CC3C(N3C)C12OC (stereo not drawn) ?
Result :: active

Query :: Hey, what did the test say about `COP(=O)(OC)/C(=C\C1=CN(C(c2ccccc2)(c2ccccc2)c2ccccc2)CN1)NC=O` ?
Result :: inactive

Query :: Hey, what did the test say about CC1CC(=O)C2CC(CO)=CCCC2C1(C)CC/C(=C/CO)CO (stereo not drawn) ?
Result :: inactive

Query :: Hey, what did the test say about `COc1ccc(S(=O)(=O)N/N=C/c2cc(I)cc([N+](=O)[O-])c2O)cc1OC` ?
Result :: inactive

###

Tested on: SK-OV-3
Assay: NCI tumour cell line growth inhibition, 48 h
Calls of active or inactive are those of the source. No stated cut-off is given here; in the data, active = GI50 up to about 1.1 µM and inactive = higher.
endpoint-label: GI50

Query :: Give a short answer stating reported GI50 for `CCCCCCCCCCOC(=O)c1cc[n+](C)cc1` .
Result :: 16 µM (inactive)

Query :: Give a short answer stating reported GI50 for CC(=O)C1(c2ccccc2)CCCN(C)CC1 (stereo unspecified) .
Result :: > 100 µM (inactive)

Query :: Give a short answer stating reported GI50 for COc1ccc(C2=Nc3ccccc3SC(C)C2)cc1OC (stereo unspecified) .
Result :: 20.3 µM (inactive)

Query :: Give a short answer stating reported GI50 for O=C(N/C(=C\c1ccccc1)C1Nc2ccccc2C(=O)O1)c1ccccc1 (stereo unspecified) .
Result :: 55.6 µM (inactive)

Query :: Give a short answer stating reported GI50 for COCOc1c(C(O[Si](C)(C)C(C)(C)C)c2cnc(Sc3ccccc3)n2C)ccc(OC)c1OC (stereo unspecified) .
Result :: 2.05 µM (inactive)

Query :: Give a short answer stating reported GI50 for CN(C)C(=O)OC1=CC2CCC(C1)N2C (stereo unspecified) .
Result :: > 100 µM (inactive)
